Origin of measurements: ChEMBL document CHEMBL3102728

Measured IC50 by item
- test.protocol: Cytotoxicity against human KE-97 cells after 72 hrs by CellTitre-Glo luminescent cell viability assay
- Type: functional, cell-based
- measurement.conditions: KE-97, 72 h

| compound | IC50 |
| --- | --- |
| COc1cc(/C=C\C(=O)OC[C@@]2(C)[C@@H]3CC[C@]4(C)[C@H](CC=C5[C@@H](O)[C@]6(CCC(C)(C)C6)CC[C@]54C)[C@@]3(C)C[C@@H](O)[C@@H]2O)ccc1O (relative stereo) | > 10 µM |
| CC1(C)CC[C@@]2(CC[C@]3(C)C(=CC[C@@H]4[C@@]5(C)C[C@@H](O)[C@H](O)[C@@](C)(COC(=O)/C=C\c6ccc(O)cc6)[C@@H]5CC[C@]43C)[C@H]2O)C1 (relative stereo) | > 10 µM |
| CC1(C)CC[C@]2(CC[C@]3(C)C(=CC[C@@H]4[C@@]5(C)C[C@@H](O)[C@H](OC(=O)/C=C\c6ccc(O)cc6)[C@@](C)(CO)[C@@H]5CC[C@]43C)[C@H]2O)C1 | > 10 µM |
